B1: GAGE1 (parent)
chain: QPPEMIGPMRPEQFSDEVEPATPE

Variants of: B1
Experiment: protein stability index of a GFP-peptide fusion (GPS, HEK-293T) (PSI 1-6); higher = more stable;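 note: lentivirally expressed fusions sorted by FACS into six bins by GFP to DsRed ratio, PSI derived from sequencing read proportions per bin multiplied by bin number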
Details: c terminus: a fixed tail appended
Experimental Readout: protein stability index
No unit in the answer, only the number.

Input: Find the recorded protein stability index belonging to D16R and report it.
Output: 5.33

Input: Same for P23I
Output: 4.72

Input: // next record G7L
Output: 5.44

Input: And then E12Y , what is it?
Output: 5.51

Input: // same read-out, input: E4R
Output: 5.74

Input: What about G7P ?
Output: 5.56

Input: Another variant to check: E4D
Output: 5.65

Input: And then Q1Y , what is it?
Output: 4.8
